assay: NCI Yeast Anticancer Drug Screen. Data for the CLN2oe strain (AID 163);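 further: 0% = growth of vehicle-only control cultures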; details: S. cerevisiae CLN2oe strain, at 33.0 µM, hits give high values
This is part of a sample that, as a whole, favours compounds with a hit. Of some 79,000 tested, about 15% had one in any assay.
Output criterion met for growth inhibition not less than 20%; output criterion not met otherwise.

>>> print(df.to_string())
                                   compound   class_assignment
0   O=C(/C(=C/c1ccc(O)cc1)c1ccccc1)c1ccccc1      criterion met
1    COc1ccc(C(=O)/C=C\c2ccc(Cl)c(Cl)c2)cc1      criterion met
2  O=C1CSC(c2ccccc2)N1c1ccc(-c2ccc(-n3c(-c4ccccc4)nc4ccccc4c3=O)cc2)cc1 (stereo unspecified)  criterion not met
3              Cc1cccc2c(Cl)c3cccc(C)c3nc12  criterion not met
4  CC(C)(CN1CCCCC1)C(=O)CC(SCCS(=O)(=O)O)c1ccccc1 (stereo unspecified)  criterion not met
5            O=C(O)c1ccc2cc(Cl)c3ccccc3c2c1      criterion met

----------
Catalogue of molecules with associated growth inhibition
assay: NCI Yeast Anticancer Drug Screen. Data for the cln2 rad14 strain (AID 165);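 further: 0% = growth equal to vehicle treated cultures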; conditions: S. cerevisiae cln2 rad14 strain, at 50.0 µM (retest, dose inferred, filed as 5.0), hits give high values
This is part of a sample that, as a whole, favours compounds with a hit. Of some 79,000 tested, about 15% had one in any assay.
Property Measured: growth inhibition (%)

>>> print(df.to_string())
                                    molecule  measured
 0  CCN(CC)CCNc1ccc(C)c2sc3ccc(O)cc3c(=O)c12        98
 1  O=C(NCCNCCNC(=O)c1cc(-c2ccccc2)nc2ccccc12)c1cc(-c2ccccc2)nc2ccccc12        45
 2  COC(=O)C(Cc1c[nH]c2ccccc12)N1CN(C)c2ccccc2C1=O (stereo unspecified)        54
 3  O=C(NC(N1CCN(c2cc3c(cc2F)c(=O)c(C(=O)O)cn3C2CC2)CC1)(C(F)(F)F)C(F)(F)F)c1ccccc1        20
 4              CC1=C(C)C(=O)C2=C(OCCO2)C1=O        29
 5      CC1=COC2=C(C)C(=O)C(=O)c3c(C)ccc1c32        32
 6  O=C(O)/C=C\C(=O)Nc1ccc2c(c1)Cc1cc(Cl)ccc1-2        15
 7  COc1cc(C2C3=C(COC3=O)Oc3cc4c(cc32)OCO4)cc(OC)c1O (stereo unspecified)        51
 8  O=[N+]([O-])c1ccc2[nH]c3c(-c4ccccc4)nccc3c2c1        96
 9                   CCCCCCCCCC(=O)N(CCC)CCC        65
10         COc1cc(NCCCCNCC(C)(C)C)c2ncccc2c1        33

----------
experiment: NCI Yeast Anticancer Drug Screen. Data for the cln2 rad14 strain (AID 165);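 further: 0% = growth equal to vehicle treated cultures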; settings: S. cerevisiae cln2 rad14 strain, at 50.0 µM (retest, dose inferred, filed as 5.0)
Compounds without any hit were thinned out: in the full panel of roughly 79,000, 15% have a hit. Activity calls are given as the source filed them. Cut-off read from the data, not from the text of the source: active = growth inhibition above about 70%; inactive = the rest.
Possible outcomes: 1.0 (active), 0.0 (inactive)

                                    compound  class_assignment
 0  CC1CN(/N=C\c2ccc([N+](=O)[O-])o2)C(=O)O1 (configuration not stated)               0.0
 1  COc1cccc(/C=C2\S/C(=N/Nc3nc(-c4ccc([N+](=O)[O-])cc4)cs3)NC2=O)c1O               1.0
 2       O=[N+]([O-])c1cn[n+]([O-])c2ccccc12               1.0
 3  O=C(NCCCCN(CCCNC(=O)C(F)(F)F)Cc1ccccc1)C(F)(F)F               0.0
 4                 O=C1C=C(Br)C(=O)c2ccccc21               1.0
 5  Nc1ccc(N=Nc2ccc(-c3ccc(O)cc3)cc2)c2ccc(S(=O)(=O)O)cc12               0.0
 6  c1ccc2c(c1)N=C1CCCC3CCCC123 (configuration not stated)               0.0
 7  Cc1ccc(S(=O)(=O)NC(=O)C2C(=O)CC3(CCCCC3)CC2=O)cc1               0.0
 8      CN(C)/C(=N/C(=S)Nc1ccccc1)SCc1ccccc1               0.0
 9      O=C1C=CC(=Nc2cccc3c2-c2ccccc2C3=O)O1               1.0
10         CC(C)S(=O)(=O)/C=C\S(=O)(=O)C(C)C               0.0
11  CCN(CC)CCNc1ccc2nc(C)n3c4ccc(OC)cc4c(=O)c1c23               0.0
12  COc1cc2c(cc1OC)[C@@H](Nc1ccc(C#N)cc1)C1COC(=O)[C@@H]1C2c1cc(OC)c(O)c(OC)c1 (some centres not stated)               1.0
13  Cc1ccccc1NC(=O)c1c(C)oc2c1C(=O)c1ccccc1C2=O               0.0
14   O=C(/C(=C/c1ccc(O)cc1)c1ccccc1)c1ccccc1               1.0
15  O=c1cccccc1[O-].O=c1cccccc1[O-].O=c1cccccc1[O-].[Eu+3]               0.0
16  Cc1ccc(NC(=O)CCC(=O)C(C)C(=O)c2ccccc2)c(C)c1 (configuration not stated)               0.0
17  CCCCCc1c(CCCC)c(=O)[nH]c2cc(CNCC(OC)OC)ccc12               1.0
18  CC(C)NCCCNc1c2ccccc2nc2cccc([N+](=O)[O-])c12               1.0
19  Nc1ccc(S(=O)(=O)Nc2nc3c(c(=O)[nH]2)CCCC3)cc1               1.0
20  O=[N+]([O-])c1ccc(C(c2c[nH]c3ccccc23)c2c[nH]c3ccccc23)cc1               1.0
21  C=COC(=O)N[C@H]1CCc2cc(OC)c(OC)c(OC)c2-c2ccc(SC)c(=O)cc21               0.0

----------
test: NCI Yeast Anticancer Drug Screen. Data for the rad18 strain (AID 177); conditions: S. cerevisiae rad18 mutant growth inhibition; at 33.0 µM
This is part of a sample that, as a whole, favours compounds with a hit. Of some 79,000 tested, about 15% had one in any assay. The source made the active and inactive calls. No stated cut-off is given here; in the data, active means growth inhibition above about 70%; inactive means the rest.
Possible outcomes: active, inactive

In [3]: df
Out[3]:
                                    compound  class_assignment
 0  Cc1ccc(S(=O)(=O)N/N=C/C(Br)=C(/Br)C(=O)O)cc1            active
 1  CC(C)NCCCNc1c2ccccc2nc2cccc([N+](=O)[O-])c12            active
 2  CCCCCCC1OCC(O)C(OCCCC)O1 (stereo unspecified)          inactive
 3  N#CSCC1COc2ccccc2O1 (stereo unspecified)            active
 4  O=C1CSC(c2ccccc2)N1c1ccc(-c2ccc(-n3c(-c4ccccc4)nc4ccccc4c3=O)cc2)cc1 (stereo unspecified)          inactive
 5       CCO/C=C1\SC(=S)N(c2ccc(OCC)cc2)C1=O          inactive
 6  CCC1(O)C(=O)OCc2c1cc1n(c2=O)Cc2cc3c(N)cccc3nc2-1 (stereo unspecified)          inactive
 7  CCN1CCC(O)(c2ccc(Oc3ccc(C)cc3)cc2)C(C(=O)c2ccc(Oc3ccc(C)cc3)cc2)C1 (stereo unspecified)            active
 8  O=C(O)C1CCCCC1c1c2ccc(=O)cc-2oc2cc(O)ccc12 (stereo unspecified)          inactive
 9      CC(C)(C)c1ccc2c(c1)C(=O)c1ccccc1C2=O          inactive
10            Nc1ccc2c(c1)C(=O)c1c(F)cccc1-2            active

----------
test: NCI Yeast Anticancer Drug Screen. Data for the mgt1 strain (AID 153); conditions: S. cerevisiae mgt1 mutant growth inhibition; at 100.0 µM; hits give high values
The panel holds about 79,000 compounds, 15% with a hit somewhere; the sample as a whole holds those more often.
Property Measured: growth inhibition (%)

>>> print(df.to_string())
                                    molecule  property_measured  measured
 0  Nc1ccc(N=Nc2ccc(-c3ccc(O)cc3)cc2)c2ccc(S(=O)(=O)O)cc12  growth inhibition        12
 1    O=C(CN(c1ccccc1)c1ccccc1)n1nnc2ccccc21  growth inhibition        88
 2                 CCN(CC)C(=S)SC(=S)N(CC)CC  growth inhibition        98
 3  C[C@H](CCC1=NC(C)(C)CO1)C1CCC2[C@@H]3C(O)C[C@@H]4CC(O)CC[C@]4(C)C3CC[C@@]21C (stereo not given in full)  growth inhibition       100
 4            Nc1ccc(/C=C/c2ccc3cccnc3c2)cc1  growth inhibition        22
 5  O=c1cccccc1[O-].O=c1cccccc1[O-].O=c1cccccc1[O-].[Eu+3]  growth inhibition        98
 6  CCOP(=O)(OCC)/C(C#N)=C/c1ccc(-c2ccc(F)cc2F)o1  growth inhibition         0
 7  CC(=O)CC(c1ccccc1)c1c(O)c2ccccc2oc1=O (stereo not given)  growth inhibition        83
 8  CC(=O)Oc1ccc2c(c1)Cc1cc(N3C(=O)C=CC3=O)ccc1-2  growth inhibition        95
 9                  O=C(/C=C/c1ccsc1)c1cccs1  growth inhibition        92
10    N#CC1OB(O)c2ccccc21 (stereo not given)  growth inhibition        -3
11                CCCCCCCCCCCCOCCOCCOCC(N)=O  growth inhibition        96
12                     COC(=N)c1ccc(O)c(C)c1  growth inhibition        -3
13                CCc1c(Cl)c(C)c(Cl)c(O)c1Cl  growth inhibition        99
14  CCOP(=O)(OCC)/C(C#N)=C/c1cccc(Oc2ccccc2)c1  growth inhibition        96
15  CCCCN(CCC#N)c1ccc(/C=C/c2ccnc3ccccc23)cc1  growth inhibition        76
16      O=C1C=CC(=Nc2cccc3c2-c2ccccc2C3=O)O1  growth inhibition        99
17    Cc1cc(C)c(S(=O)(=O)c2ccc(Cl)cc2)c(C)c1  growth inhibition        -3
18      Cc1ccc(C)c(C(=N)c2ccccc2Cc2ccccc2)c1  growth inhibition        97
19  CC(C)(CN1CCCCC1)C(=O)CC(SCCS(=O)(=O)O)c1ccccc1 (stereo not given)  growth inhibition        12
20  CC1(C)C(O)OC(O)C1(C)C (stereo not given)  growth inhibition        10
21                 Cc1c(Cl)c(C)c(Cl)c(O)c1Cl  growth inhibition        98
22                   Cc1cc(O)c(C(C)C)cc1SC#N  growth inhibition        99
23  Oc1c2c(c(O)c3ccccc13)C1(N=N2)c2ccccc2Oc2ccccc21  growth inhibition        94
24              CN(C)CC1=Nc2cccc3cccc(c23)N1  growth inhibition        87
